# assay remarks: qHTS assay to identify small molecule antagonists of the farnesoid-X-receptor (FXR) signaling pathway - cell viability counter screen (AID 743221); further: nearly all actives have a fitted effect of over 50% in size
# experimental parameters: FXR-bla HEK293T viability, CellTiter-Glo luminescence, 16 h; series mostly up to 62.6 µM
Records with an inconclusive call do not appear. Active and inactive are the calls of the source. The call rests on the fitted dose curve; in most records, active means well fitted cell-killing curve with a large enough effect in the repeat runs (not every such curve was filed as active); inconclusive means weak or mixed curves, or effect the other way; inactive means no such curve, though single readings can be large or run the other way.
Outcomes you can answer with include only these: active, inactive

Completed entries (count: 3):
{"columns": ["molecule", "answer label"],
 "data": [
  ["COc1ccc(C(c2ccc(OC)cc2)C(Cl)(Cl)Cl)cc1", "inactive"],
  ["CN1CSC(=S)N(C)C1", "active"],
  ["Cc1ccc(N(SC(F)(Cl)Cl)S(=O)(=O)N(C)C)cc1", "active"]
]}

Q: Tell me the assay call for Clc1ccccc1-c1ccccc1Cl please.
Result: inactive

Q: Tell me the assay call for ClC1=C(Cl)[C@]2(Cl)[C@@H]3[C@@H](Cl)[C@H]4O[C@H]4[C@@H]3C1(Cl)C2(Cl)Cl please.
Result: inactive

Q: Tell me the assay call for O=C1C(I)=CC(=C(c2cc(I)c(O)c(I)c2)c2ccccc2C(=O)O)C=C1I please.
Result: inactive

Q: Tell me the assay call for c1ccc2c(c1)Sc1ccccc1N2CC1CN2CCC1CC2 (stereo not drawn) please.
Result: active

Q: Tell me the assay call for COc1cc(OC)c(OC)cc1C=O please.
Result: inactive

---

# assay remarks: qHTS assay to identify small molecule antagonists of the glucocorticoid receptor (GR) signaling pathway - cell viability counter screen (AID 720693); further: nearly all actives have a fitted effect of over 55% in size
# experimental parameters: GR-bla HeLa viability, CellTiter-Glo luminescence, 18 h, with 5 nM dexamethasone present; series mostly up to 58.5 µM
Inconclusive results are not listed. Calls of active or inactive are those of the source. Calls come from the whole dose curve; as a rule, active = well fitted cell-killing curve with a large enough effect in the repeat runs; inconclusive = weak or mixed curves, or effect the other way; inactive = no such curve, though single readings can be large or run the other way.
Outcomes you can answer with include only these: active, inactive

Completed entries (count: 3):
{"columns": ["compound", "answer label"],
 "data": [
  ["CC(C)[C@H]1C(=O)N2CCC[C@H]2[C@]2(O)O[C@](NC(=O)[C@@H]3C[C@@H]4c5cccc6[nH]cc(c56)C[C@H]4N(C)C3)(C(C)C)C(=O)N12", "inactive"],
  ["CCCCC[C@@H](O)C1C(=O)OC(C)[C@H](O)/C=C/C=C/C=C/C=C/C=C(\\C)C(O)C(O)C(O)C[C@H](O)C[C@H](O)C[C@H](O)C[C@H](O)C[C@@H]1O (some centres not stated)", "inactive"],
  ["CC(=O)O[C@H]1C[C@H](O[C@H]2[C@@H](O)C[C@H](O[C@H]3[C@@H](O)C[C@H](OC4CC[C@@]5(C)[C@H](CC[C@@H]6[C@@H]5CC[C@]5(C)[C@@H](C7=CC(=O)OC7)CC[C@]65O)C4)O[C@@H]3C)O[C@@H]2C)O[C@H](C)[C@H]1O[C@@H]1O[C@H](CO)[C@@H](O)[C@H](O)[C@H]1O (some centres not stated)", "active"]
]}

Q: Tell me the assay call for N#CC(C#N)=Cc1cc(O)c(O)c(O)c1 please.
Result: inactive

Q: Tell me the assay call for CC(=O)Oc1ccc2c3c1O[C@H]1[C@@H](OC(C)=O)C=C[C@H]4[C@@H](C2)N(C)CC[C@@]341 please.
Result: inactive

Q: Tell me the assay call for C=CCC1([C@@H](C)CCC)C(=O)NC(=O)NC1=O please.
Result: inactive

Q: Tell me the assay call for CCON=O please.
Result: inactive
